Hey, just so you know, these numbers are from patent US11414428B2.

- targetEntity: full length human TDO (GL261 cells) (Homo sapiens (Human))
- Sequence (P48775 whole entry): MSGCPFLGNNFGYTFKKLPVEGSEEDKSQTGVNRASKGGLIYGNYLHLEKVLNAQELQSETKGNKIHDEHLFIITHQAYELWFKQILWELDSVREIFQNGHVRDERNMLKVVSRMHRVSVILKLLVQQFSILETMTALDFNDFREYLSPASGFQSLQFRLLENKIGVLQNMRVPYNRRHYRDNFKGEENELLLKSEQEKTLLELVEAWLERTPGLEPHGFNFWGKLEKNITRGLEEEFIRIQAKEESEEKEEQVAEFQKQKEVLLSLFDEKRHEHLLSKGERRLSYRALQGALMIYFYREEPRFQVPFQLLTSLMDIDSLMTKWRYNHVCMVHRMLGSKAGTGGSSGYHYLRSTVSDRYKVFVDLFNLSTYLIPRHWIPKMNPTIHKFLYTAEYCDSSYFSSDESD
- assayDetails: Cell-based assay for TDO inhibition
- statedConditions: GL261 cells over-expressing human TDO, 24 h; read-out: Cellular IC50
measurementType: IC50

*Q* Write down measured IC50 (full length human TDO (GL261 cells) (Homo sapiens (Human))) for this molecule. Cc1nc2onc(NC(=O)Nc3cccc(C(F)(F)F)c3)c2c(C)c1Cl [Compound 15]
*A* 10 to 100 µM

Now take the following molecule into account.
*Q* Provide full length human TDO (GL261 cells) (Homo sapiens (Human)) IC50 reading for Cc1nc2onc(NC(=O)Oc3ccccc3)c2c(C)c1Cl [Compound 4] .
*A* 10 to 100 µM
